Target entity: Retinaldehyde dehydrogenase 3 (Homo sapiens)
Test: qHTS for Inhibitors of the Aldehyde Dehydrogenase Family (ALDH1A3) Confirmatory screens (AID 2061311); note: nearly all actives have a fitted effect of over 60% in size
Particulars: ALDH inhibition qHTS; series mostly up to 46 µM
Results filed as inconclusive are left out. The source made the active and inactive calls. Calls come from the whole dose curve; as a rule, active = well fitted inhibition curve with a large enough effect; inconclusive = small, poorly fitted or top-dose-only effect; inactive = no such curve, though single readings can be large or run the other way.
# valid calls are active, inactive; nothing else

Input: Recorded test call requested for C[S+](CC[C@H](N)C(=O)[O-])C[C@H]1O[C@@H](n2cnc3c(N)ncnc32)[C@H](O)[C@@H]1O (some centres undefined)
Output: inactive

Input: For `COc1ccc(C2=Nn3c(nnc3-c3cc(OC)cc(OC)c3)SC2)cc1` , which call appears in the assay record?
Output: inactive

Input: Hi, do you know how `COc1cccc(OC2=NS(=O)(=O)c3ccccc32)c1` came out in this test?
Output: inactive

Input: Short answer needed: outcome of this test for `Cc1cc2c(N3CCCC3)nc(N3CCCC3)nc2n1C` ?
Output: active

Input: Lab log entry: `CN(Cc1cccs1)c1ncnc2ccc(-c3ccc4cnn(C)c4c3)cc12` — outcome as called in the assay?
Output: inactive

Input: What was the test verdict on `CN(Cc1ccco1)c1ncnc2ccc(-c3cccnc3)cc12` ?
Output: active

Input: What did this assay record as the result for CC(C(=O)O)c1ccc2c(c1)CC(=O)c1ccccc1S2 (centres undefined) ?
Output: inactive

Input: Which outcome did this test record for the molecule COc1ccc(C2Nc3ccccc3C(=O)N2CCO)cc1COc1ccc(NC(C)=O)cc1 (centres undefined) ?
Output: active

Input: How did this test come out for `Oc1ccc(CNc2ccccc2F)c2cccnc12` ?
Output: inactive

Input: Hi, sorry to bother you, what did the test record for `CC(=O)N1CCN(c2ccc(NCc3ccc(C)cc3)cc2)CC1` ?
Output: active

Input: What did the test return for `N[C@@]1(C(=O)O)CC[C@H]2[C@H](C(=O)O)[C@H]21` ?
Output: inactive

Input: For this molecule, state the assay outcome: CC(=O)NC(c1ccco1)c1cc(Cl)c2ccc(N3CCCCC3)nc2c1O (centres undefined)
Output: active

Input: Look up the recorded call for `COc1cccc(-c2cc(C(=O)NCC(F)F)c3cnn(C)c3n2)c1` in this test.
Output: active

Input: Hi team, can someone confirm the assay call for `CC(C)c1ccccc1-c1ncc(F)c(NC(C)(C)c2ccc(-c3cccnc3)cc2)n1` ?
Output: inactive

Input: Dear all, I need the recorded test outcome for `Cc1ccc2nc3sc(C(=O)NCCN4CCOCC4)cc3cc2c1` , thank you.
Output: inactive

Input: Returns: the outcome recorded for `CC(C)(C)c1ccc(SC2=NS(=O)(=O)c3ccccc32)cc1` in this assay.
Output: inactive

Input: What call does the record list for `CCCCNc1ccc(C(=O)OCCN(CC)CC)cc1` ?
Output: inactive

Input: Outcome logged for Cc1nnc(-c2ccc3occ(-c4ccc(S(C)=O)cc4)c3c2)o1 (centres undefined) in this assay:
Output: active

Input: Recorded test outcome, item `O=C(Nc1ccccc1)N1CCN(Cc2ccc3ccccc3n2)CC1`
Output: inactive
